Experimental readout: melting point

Below are worked cases with known answers.
- Molecule: "CCn1c(=O)n(CC2CCOCC2)c(=O)c2[nH]c(SSc3nc4c([nH]3)c(=O)n(CC3CCOCC3)c(=O)n4CC)nc21 [Compound 13]"
  melting point: "229 to 231 °C"
- Molecule: "CCn1c(=O)n(CC2CCCO2)c(=O)c2[nH]c(SSc3nc4c([nH]3)c(=O)n(CC3CCCO3)c(=O)n4CC)nc21 (stereo not drawn) [Compound 14]"
  melting point: "166 to 168 °C"
- Molecule: "CCn1c(=O)n(CC(C)C)c(=O)c2[nH]c(SSc3nc4c([nH]3)c(=O)n(CC(C)C)c(=O)n4CC)nc21 [Compound 12]"
  melting point: "240 to 242 °C"
- Molecule: "CCCn1c(=O)c2[nH]c(SSc3nc4c([nH]3)c(=O)n(CCC)c(=O)n4CCC)nc2n(CCC)c1=O [Compound 4]"
  melting point: "241 to 243 °C"
- Molecule: "CCn1c(=O)n(CCc2ccccc2)c(=O)c2[nH]c(SSc3nc4c([nH]3)c(=O)n(CCc3ccccc3)c(=O)n4CC)nc21 [Compound 15]"
  melting point: "225 to 227 °C"

Identify measured melting point associated with CCn1c(=O)n(CCc2ccc(OC)cc2)c(=O)c2[nH]c(SSc3nc4c([nH]3)c(=O)n(CCc3ccc(OC)cc3)c(=O)n4CC)nc21 [Compound 18]
216 to 219 °C

* * *

Experimental readout: melting point

Below are worked cases with known answers.
- Compound: "CCn1c(=O)n(CCc2ccc(NC(=O)OC(C)(C)C)cc2)c(=O)c2[nH]c(SSc3nc4c([nH]3)c(=O)n(CCc3ccc(NC(=O)OC(C)(C)C)cc3)c(=O)n4CC)nc21 [Compound 17]"
  Observed measurement: "168 to 171 °C"
- Compound: "CCn1c(=O)n(CCC(=O)Nc2cccc(C(F)(F)F)c2)c(=O)c2[nH]c(SSc3nc4c([nH]3)c(=O)n(CCC(=O)Nc3cccc(C(F)(F)F)c3)c(=O)n4CC)nc21 [Compound 19]"
  Observed measurement: "174 to 175 °C"

We now examine a further compound.
Identify measured melting point associated with CCn1c(=O)n(CCc2ccc(F)cc2)c(=O)c2[nH]c(SSc3nc4c([nH]3)c(=O)n(CCc3ccc(F)cc3)c(=O)n4CC)nc21 [Compound 16]
216 to 218 °C

* * *

Target chain: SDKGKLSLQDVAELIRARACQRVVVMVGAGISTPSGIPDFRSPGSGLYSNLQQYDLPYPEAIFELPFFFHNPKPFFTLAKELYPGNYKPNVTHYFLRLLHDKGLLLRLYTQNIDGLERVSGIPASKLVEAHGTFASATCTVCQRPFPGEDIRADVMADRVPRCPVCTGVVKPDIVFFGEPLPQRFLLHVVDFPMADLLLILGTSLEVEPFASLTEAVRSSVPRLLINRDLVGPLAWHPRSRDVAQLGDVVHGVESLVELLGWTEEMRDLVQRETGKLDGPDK
Experimental readout: pIC50
For clarity, pIC50 is expressed as the negative log10 of concentration in mol/L.

Identify measured pIC50 associated with CCn1c(=O)n(CCc2ccc(F)cc2)c(=O)c2[nH]c(SSc3nc4c([nH]3)c(=O)n(CCc3ccc(F)cc3)c(=O)n4CC)nc21 [Compound 16]
6.34
